TEST TARGET: T1, biotin-labeled recombinant EGFRvIII protein (UniProt P00533 25-645, biotin-labeled)
T1 construct: the construct is not described
ASSAY OVERVIEW: competitive ELISA; competitor Murine anti-63A10
Description: The purified antibodies to be tested are diluted with PBS to 1 μg/mL, coated onto a 96-well high-adsorption ELISA plate at 50 μL/well at 4° C. overnight, and then blocked with 250 μL of the blocking solution [PBS containing 0.01% (v/v) Tween20 and 1% (w/w) BSA] for one hour at room temperature, and each well is added with 0.05 μg/mL of the biotin-labeled recombinant EGFRvIII protein. […]
competition rate listing for selected binders.

Murine anti-75G7 (antibody, V domains shown, Mouse hybridoma antibody; also called 75G7C6) VH: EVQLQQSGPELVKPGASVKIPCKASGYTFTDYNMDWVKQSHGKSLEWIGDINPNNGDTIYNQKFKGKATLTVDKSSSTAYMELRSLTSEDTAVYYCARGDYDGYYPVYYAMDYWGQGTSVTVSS VL: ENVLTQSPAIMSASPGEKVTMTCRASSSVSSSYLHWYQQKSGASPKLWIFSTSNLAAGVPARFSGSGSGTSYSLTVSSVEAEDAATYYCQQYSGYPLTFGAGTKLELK
9%

Q: For Murine anti-7E5 (antibody, V domains shown, Mouse hybridoma antibody; also called 7E5-2A9; murine anti-7E5-2) VH: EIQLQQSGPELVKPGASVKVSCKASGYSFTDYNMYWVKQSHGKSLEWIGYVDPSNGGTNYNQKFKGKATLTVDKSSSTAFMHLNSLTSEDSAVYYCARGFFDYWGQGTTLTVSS VL: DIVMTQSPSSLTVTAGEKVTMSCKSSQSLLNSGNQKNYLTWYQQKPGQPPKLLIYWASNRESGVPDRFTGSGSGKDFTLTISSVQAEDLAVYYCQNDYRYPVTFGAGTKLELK , what is its reported competition rate?
Ans: 70%

Q: Proceed to Murine anti-63A10 (antibody, V domains shown, Mouse hybridoma antibody; also called 63A10A7) VH: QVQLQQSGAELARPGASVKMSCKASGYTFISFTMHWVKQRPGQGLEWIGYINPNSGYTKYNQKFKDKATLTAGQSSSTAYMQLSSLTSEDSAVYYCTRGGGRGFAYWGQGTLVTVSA VL: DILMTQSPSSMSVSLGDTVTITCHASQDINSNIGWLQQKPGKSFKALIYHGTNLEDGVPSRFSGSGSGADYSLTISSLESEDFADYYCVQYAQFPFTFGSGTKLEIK
Ans: 89%

Q: Proceed to Murine anti-64F1 (antibody, V domains shown, Mouse hybridoma antibody; also called 64F1F8) VH: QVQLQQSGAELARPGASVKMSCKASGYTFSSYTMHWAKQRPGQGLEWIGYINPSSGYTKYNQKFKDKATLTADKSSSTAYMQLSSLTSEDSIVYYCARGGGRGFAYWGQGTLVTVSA VL: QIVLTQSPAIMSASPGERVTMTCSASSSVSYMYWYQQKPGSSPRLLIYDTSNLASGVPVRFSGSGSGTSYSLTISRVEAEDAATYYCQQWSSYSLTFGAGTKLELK
Ans: 81%

Data credit: patent US20210032351A1
